# measured on: T1, recombinant human IL-33 (R&D Systems 3625-IL), reduced with DTT (human, UniProt O95760 112-270, limits assumed)
# T1 sequence (looked up): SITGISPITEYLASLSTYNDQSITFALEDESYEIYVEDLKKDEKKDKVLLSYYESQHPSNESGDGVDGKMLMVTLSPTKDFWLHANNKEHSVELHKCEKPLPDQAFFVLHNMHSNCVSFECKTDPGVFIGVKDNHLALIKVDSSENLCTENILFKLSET
# procedure summary: cell-based or functional assay
This listing pairs binders with measured IC50 [nM] versus reduced human IL-33 (R&D), IC50 (AVE).
Field format: number, assumed nM, no unit text.

Solved entries:
[
  {
    "binder": "IL33-0232 (antibody, human IgG1, kappa, V domains shown) VH: EVQLVESGGGLVQPGGSLRLSCAASGFTFSSYWMYWVRQAPGKGLEWVAAITPNAGEDYYPESVKGRFTISRDNAKNSLYLQMNSLRAEDTAVYYCARGHYYYTSYSLGYWGQGTLVTVSS VL: DIQMTQSPSSLSASVGDRVTITCKASQNINKHLDWYQQKPGKAPKLLIYFTNNLQTGVPSRFSGSGSGTDFTLTISSLQPEDFATYYCFQYNQGWTFGGGTKVEIKR",
    "unit annotation": "nM",
    "quantitative readout": 0.071
  },
  {
    "binder": "IL33-0711 (antibody, IgG1, V domains shown) VH: EVQLVESGGGLVQPGGSLRLSCAASGFTFSSYWMYWVRQAPGKGLEWVAAITPNAHAGYYPESVKGRFTISRDNAKNSLYLQMNSLRAEDTAVYYCARGHYYYTSYSLGYWGQGTLVTVSS VL: DIQMTQSPSSLSASVGDRVTITCRASQPISKHLDWYQQKPGKAPKLLIYFTKNLKTGVPSRFSGSGSGTDFTLTISSLQPEDFATYYCFQYNQGWTFGGGTKVEIK",
    "unit annotation": "nM",
    "quantitative readout": 0.007
  }
]

Consider the record given below.
Exercise: Any idea what its IC50 [nM] versus reduced human IL-33 (R&D), IC50 (AVE) is? The binder is IL33-0698 (antibody, IgG1, V domains shown) VH: EVQLVESGGGLVQPGGSLRLSCAASGFTFSSYWMYWVRQAPGKGLEWVAAITPNAHAGYYPESVKGRFTISRDNAKNSLYLQMNSLRAEDTAVYYCARGHYYYTSYSLGYWGQGTLVTVSS VL: DIQMTQSPSSLSASVGDRVTITCRASQPISKHLDWYQQKPGKAPKLLIYFTNNLQTGVPSRFSGSGSGTDFTLTISSLQPEDFATYYCFQYKQGWTFGGGTKVEIK
Solution: 0.014

Data origin, for the record: patent US20240117030A1
